# Test System: Integrin alpha-4/beta-7 (Homo sapiens, UniProt P13612+P26010)
# Sequence (P26010 whole entry, one chain of several): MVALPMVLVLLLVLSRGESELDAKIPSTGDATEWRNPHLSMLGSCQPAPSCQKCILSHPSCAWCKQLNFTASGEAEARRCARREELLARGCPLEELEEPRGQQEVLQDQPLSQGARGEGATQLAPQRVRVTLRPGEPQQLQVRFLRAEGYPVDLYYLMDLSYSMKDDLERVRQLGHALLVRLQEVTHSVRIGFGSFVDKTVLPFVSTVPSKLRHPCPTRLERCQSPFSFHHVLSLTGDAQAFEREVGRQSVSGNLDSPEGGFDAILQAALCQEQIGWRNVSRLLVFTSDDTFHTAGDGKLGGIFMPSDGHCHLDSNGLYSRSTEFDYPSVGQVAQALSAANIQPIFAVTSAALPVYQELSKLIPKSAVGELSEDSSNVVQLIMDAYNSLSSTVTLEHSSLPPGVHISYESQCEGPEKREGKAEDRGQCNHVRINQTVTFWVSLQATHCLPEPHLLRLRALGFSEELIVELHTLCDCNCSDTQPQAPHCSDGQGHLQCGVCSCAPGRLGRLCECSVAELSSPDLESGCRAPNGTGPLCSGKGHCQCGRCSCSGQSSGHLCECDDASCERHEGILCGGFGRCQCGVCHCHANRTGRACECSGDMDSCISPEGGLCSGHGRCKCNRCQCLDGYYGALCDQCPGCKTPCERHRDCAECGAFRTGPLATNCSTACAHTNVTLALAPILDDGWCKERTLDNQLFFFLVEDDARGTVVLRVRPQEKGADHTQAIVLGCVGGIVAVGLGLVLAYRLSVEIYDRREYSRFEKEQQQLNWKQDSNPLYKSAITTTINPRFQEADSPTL
# Assay Protocol: Inhibition of fluorescent Ramos cell adhesion to VCAM-1 by alpha4-beta7 integrin
# Assay type: protein-complex assay
pIC50: −log10 of the molar value.
List of pIC50 values.

Some molecules with known pIC50 results, for comparison:
COCCCN(CC(=O)N[C@@H](CC(=O)O)c1ccccc1)C(=O)Cc1ccc(NC(=O)Nc2ccccc2C)cc1 :: < 4.00
C/C=C/[C@H](CC(=O)O)NC(=O)CN(CCCOC)C(=O)Cc1ccc(NC(=O)Nc2ccccc2C)cc1 :: < 4.00

Next:
pIC50 for `COCCCN(CC(=O)N[C@@H](CC(=O)O)c1ccc(OC)c(OC)c1)C(=O)Cc1ccc(NC(=O)Nc2ccccc2C)cc1` is < 4.00

###

# Test System: Integrin alpha-4/beta-1, Mus musculus
# Assay Protocol: Inhibition of fluorescent Ramos cell adhesion to VCAM-1 by mouse Very late antigen 4 (VLA-4) integrin
Parameter Measured: IC50 (nM)
Please respond with the number in nM and leave the unit unwritten.

Field IC50 (Integrin alpha-4/beta-1, Mus musculus), entry `C/C=C/[C@H](CC(=O)O)NC(=O)CN(CCCOC)C(=O)Cc1ccc(NC(=O)Nc2ccccc2C)cc1` : 7.7

###

# Test System: Integrin alpha-4/beta-1 (Homo sapiens, UniProt P05556+P13612)
# Sequence (P05556 whole entry): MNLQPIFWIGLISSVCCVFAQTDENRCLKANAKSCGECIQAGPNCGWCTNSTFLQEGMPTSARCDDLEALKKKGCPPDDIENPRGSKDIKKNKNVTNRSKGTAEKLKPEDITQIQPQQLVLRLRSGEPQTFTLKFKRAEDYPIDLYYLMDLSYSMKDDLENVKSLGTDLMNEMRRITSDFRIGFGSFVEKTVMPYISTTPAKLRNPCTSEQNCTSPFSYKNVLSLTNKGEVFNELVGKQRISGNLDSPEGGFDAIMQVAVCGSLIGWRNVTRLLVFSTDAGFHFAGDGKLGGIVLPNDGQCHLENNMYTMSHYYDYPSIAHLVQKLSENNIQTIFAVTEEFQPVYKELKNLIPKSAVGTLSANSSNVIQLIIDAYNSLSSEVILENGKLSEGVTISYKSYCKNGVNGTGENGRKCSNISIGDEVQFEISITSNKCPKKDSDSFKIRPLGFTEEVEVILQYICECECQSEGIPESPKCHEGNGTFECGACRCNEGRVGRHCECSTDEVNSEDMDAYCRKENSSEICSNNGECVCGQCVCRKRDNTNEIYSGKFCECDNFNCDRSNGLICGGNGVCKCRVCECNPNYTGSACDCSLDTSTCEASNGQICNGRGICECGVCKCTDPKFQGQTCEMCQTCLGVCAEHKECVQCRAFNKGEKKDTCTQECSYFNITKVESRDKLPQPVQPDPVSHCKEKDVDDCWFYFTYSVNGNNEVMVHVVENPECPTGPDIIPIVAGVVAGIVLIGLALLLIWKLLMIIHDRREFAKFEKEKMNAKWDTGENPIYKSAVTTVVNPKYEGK
# Sequence (P13612 whole entry): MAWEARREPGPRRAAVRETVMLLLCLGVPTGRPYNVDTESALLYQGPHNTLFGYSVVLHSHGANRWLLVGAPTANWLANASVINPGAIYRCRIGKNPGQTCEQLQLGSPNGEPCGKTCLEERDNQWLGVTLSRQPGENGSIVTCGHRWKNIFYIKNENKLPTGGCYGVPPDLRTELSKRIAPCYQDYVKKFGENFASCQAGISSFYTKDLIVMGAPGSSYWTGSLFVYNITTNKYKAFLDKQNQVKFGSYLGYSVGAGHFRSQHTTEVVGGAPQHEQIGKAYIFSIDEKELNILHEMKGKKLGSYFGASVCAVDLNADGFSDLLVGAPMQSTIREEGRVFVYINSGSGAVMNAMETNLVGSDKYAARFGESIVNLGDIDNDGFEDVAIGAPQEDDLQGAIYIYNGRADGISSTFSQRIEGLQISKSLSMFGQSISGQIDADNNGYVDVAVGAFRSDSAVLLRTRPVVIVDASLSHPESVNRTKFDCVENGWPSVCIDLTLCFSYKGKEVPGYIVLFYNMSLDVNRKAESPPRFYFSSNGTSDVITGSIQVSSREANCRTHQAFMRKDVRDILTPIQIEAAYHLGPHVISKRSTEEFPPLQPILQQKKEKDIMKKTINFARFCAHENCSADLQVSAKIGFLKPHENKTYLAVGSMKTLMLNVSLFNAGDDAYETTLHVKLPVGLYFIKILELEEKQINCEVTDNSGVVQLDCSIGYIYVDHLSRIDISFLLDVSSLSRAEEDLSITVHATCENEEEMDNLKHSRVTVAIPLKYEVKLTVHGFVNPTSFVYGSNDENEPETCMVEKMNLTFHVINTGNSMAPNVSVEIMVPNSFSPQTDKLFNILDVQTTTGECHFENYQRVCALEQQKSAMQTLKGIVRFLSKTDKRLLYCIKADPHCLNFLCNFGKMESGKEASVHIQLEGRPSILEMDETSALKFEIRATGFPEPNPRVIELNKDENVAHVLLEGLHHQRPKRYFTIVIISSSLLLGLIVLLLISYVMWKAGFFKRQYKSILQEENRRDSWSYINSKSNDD
# Assay Protocol: In vitro Very late antigen 4 cell adhesion inhibitory activity measured by binding of fluorescently labeled Ramos cells to immobilized VCAM-1.
# Assay type: cell-based
Parameter Measured: IC50 (nM)

The cases that follow already have their IC50 on record.
Cc1ccccc1NC(=O)Nc1ccc(CC(=O)N[C@H](CC(=O)N[C@@H](CC(=O)O)c2ccccc2)CC(C)C)cc1 :: 7300
C/C=C/[C@H](CC(=O)O)NC(=O)CN(CCCOC)C(=O)Cc1ccc(NC(=O)Nc2ccccc2C)cc1 :: 15.4

(I) Cc1ccccc1NC(=O)Nc1ccc(CC(=O)N(CCC(C)C)CC(=O)N[C@@H](CC(=O)O)c2ccccc2)cc1
(II) Cc1ccccc1NC(=O)Nc1ccc(CC(=O)NN(CC(C)C)C(=O)NC(CC(=O)O)c2ccccc2)cc1 (stereo not given)
(III) C=CCN(CC(=O)O)NC(=O)[C@@H](CC(C)C)NC(=O)Cc1ccc(NC(=O)Nc2ccccc2C)cc1
Q: Hey, can you sort those compounds up there by IC50, smallest first? Note for the reader: the ranking is given by listing the labels in the order requested.
A: I, II, III

###

# Test System: Integrin alpha-4/beta-1, Rattus norvegicus
# Assay Protocol: Inhibition of fluorescent Ramos cell adhesion to VCAM-1 by rat Very late antigen 4 (VLA-4) integrin
Parameter Measured: IC50 (nM)

COCCCN(CC(=O)N[C@@H](CC(=O)O)c1ccc(OC)cc1)C(=O)Cc1ccc(NC(=O)Nc2ccccc2C)cc1 :: 27.2
COCCCN(CC(=O)N[C@@H](CC(=O)O)c1ccc(OC)c(OC)c1)C(=O)Cc1ccc(NC(=O)Nc2ccccc2C)cc1 :: 21.6
C/C=C/[C@H](CC(=O)O)NC(=O)CN(CCCOC)C(=O)Cc1ccc(NC(=O)Nc2ccccc2C)cc1 :: 20.5
COCCCN(CC(=O)N[C@@H](CC(=O)O)c1ccccc1)C(=O)Cc1ccc(NC(=O)Nc2ccccc2C)cc1 :: 24.5

###

# Test System: Integrin alpha-4/beta-1, Mus musculus
# Assay Protocol: Inhibition of fluorescent Ramos cell adhesion to VCAM-1 by mouse Very late antigen 4 (VLA-4) integrin
pIC50: −log10 of the molar value.
Parameter Measured: pIC50

(A) COCCCN(CC(=O)N[C@@H](CC(=O)O)c1ccccc1)C(=O)Cc1ccc(NC(=O)Nc2ccccc2C)cc1
(B) COCCCN(CC(=O)N[C@@H](CC(=O)O)c1ccc(OC)cc1)C(=O)Cc1ccc(NC(=O)Nc2ccccc2C)cc1
Q: Task for the reader: decide whether A or B has the larger pIC50. Indicate your choice by writing its label.
A: A
